assay: AUC in CD1 mouse at 100 mg/kg, sc; assay type: ADME, organism-based; set-up: dose 100 mg/kg, route subcutaneous; details: plasma

line_notation: CCOC(=O)c1ccc(Oc2ccc3c(c2)COB3O)nc1
AUC (ng·h/mL): 14500

* * *

assay: Chemical stability in phosphate buffer of pH 7.4 assessed as change in ester; format: physicochemical; details: read-out: Activity

line_notation: CCOC(=O)c1ccc(Oc2ccc3c(c2)COB3O)cc1
percent change in ester / %: -3.2
//
line_notation: CCCCOC(=O)c1ccc(Oc2ccc3c(c2)COB3O)nc1
percent change in ester / %: -8.9
//
line_notation: CCOC(=O)c1ccc(Oc2ccc3c(c2)COB3O)nc1
percent change in ester / %: -2.4
